- target: CYP11B2 (Homo sapiens (Human))
- Sequence (P19099 25-503): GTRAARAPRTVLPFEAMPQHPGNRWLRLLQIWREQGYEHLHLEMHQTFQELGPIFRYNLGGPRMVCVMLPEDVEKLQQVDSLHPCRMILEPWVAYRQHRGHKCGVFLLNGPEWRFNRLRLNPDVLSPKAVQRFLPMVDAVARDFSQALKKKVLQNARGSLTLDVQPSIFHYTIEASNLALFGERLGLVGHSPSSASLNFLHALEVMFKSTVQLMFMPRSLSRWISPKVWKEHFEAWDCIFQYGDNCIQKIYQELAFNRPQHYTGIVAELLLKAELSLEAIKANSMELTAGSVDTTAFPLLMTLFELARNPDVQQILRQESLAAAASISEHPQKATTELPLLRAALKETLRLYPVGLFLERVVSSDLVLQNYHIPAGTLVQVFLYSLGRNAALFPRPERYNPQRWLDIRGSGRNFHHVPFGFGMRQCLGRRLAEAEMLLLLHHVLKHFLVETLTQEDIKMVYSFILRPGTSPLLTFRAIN
- protocol-summary: G-402 cellular enzyme assay, human CYP11B2 (aldosterone release)
- assay-conditions: G-402 cells expressing human CYP11B2, 1 μM Deoxycorticosterone
pEC50: −log10 of the molar value.
readout-type: pEC50

compound="CC1(COC2CCc3c(-c4ccc(C(F)(F)F)cc4)cncc32)COC1 (racemic) [Example 103]" data_value=9.70
compound="COC(=O)COC1CCc2c(-c3ccc(C(F)(F)F)cc3)cncc21 (racemic) [Example 98]" data_value=7.71
compound="CC(=O)N[C@@H]1CCCc2c(-c3ccc(C(F)(F)F)cc3F)cncc21 [Example 75]" data_value=7.29
compound="CCC(=O)NC1CCCc2c(-c3ccc(F)c(Cl)c3)cncc21 (racemic) [Example 20]" data_value=7.62
compound="N#Cc1ccc(-c2cncc3c2CCCC3N)cc1 (racemic) [Example 1]" data_value=7.38
compound="CCC(=O)NC1CCc2c(-c3ccc(C#N)cc3)cncc21 (single isomer, unassigned; (+)) [Example 19]" data_value=7.92
compound="CCC(=O)NC1CCCc2c(-c3ccc(Cl)c(F)c3)cncc21 (single isomer, unassigned; (-)) [Example 37]" data_value=5.90
compound="OC1CCc2c(-c3ccc(C(F)(F)F)cc3F)cncc21 (racemic) [Example 80]" data_value=8.35
compound="CS(=O)(=O)NC1CCc2c(-c3ccc(C(F)(F)F)cc3)cncc21 (racemic) [Example 95]" data_value=5.74
compound="CCC(=O)NC1CCCc2c(-c3ccc(Cl)c(F)c3)cncc21 (racemic) [Example 36]" data_value=7.85
compound="CCC(=O)N[C@H]1c2cncc(-c3ccc(C(F)(F)F)cc3)c2CC[C@H]1C (single isomer, unassigned) [Example 70]" data_value=7.38
compound="CCC(=O)NC1CCCc2c(-c3ccc(Cl)cc3F)cncc21 (single isomer, unassigned; (-)) [Example 31]" data_value=5.91
compound="NC1CCc2c(-c3ccc(C(F)(F)F)cc3)cncc21 (racemic) [Example 93]" data_value=7.06
compound="CCC(=O)NC1CCCc2c(-c3ccc(F)c(C)c3)cncc21 (single isomer, unassigned; (-)) [Example 28]" data_value=6.65
compound="CCS(=O)(=O)NC1CCc2c(-c3ccc(C(F)(F)F)cc3)cncc21 (single isomer, unassigned; (-)) [Example 65]" data_value=5.79
compound="CCS(=O)(=O)NC1CCc2c(-c3ccc(C(F)(F)F)cc3)cncc21 (racemic) [Example 64]" data_value=6.14
compound="CCC(=O)NC1CCCc2c(-c3ccc(C(F)(F)F)cc3F)cncc21 (single isomer, unassigned; (+)) [Example 35]" data_value=7.15
compound="CCC(=O)NC1CCc2c(-c3ccc(C(F)(F)F)cc3F)cncc21 (single isomer, unassigned; (-)) [Example 62]" data_value=5.78
compound="CCC(=O)NC1CCCc2c(-c3ccc(C(F)(F)F)cc3)cncc21 (single isomer, unassigned; (+)) [Example 23]" data_value=7.51
compound="CCC(=O)NC1CCc2c(-c3ccc(C(F)(F)F)cc3)cncc21 (racemic) [Example 49]" data_value=7.10
compound="CCC(=O)NC1CCc2c(-c3ccc(C(F)(F)F)cc3)cncc21 (single isomer, unassigned; (+)) [Example 51]" data_value=7.60
compound="CCCNS(=O)(=O)NC1CCCc2c(-c3ccc(C#N)cc3)cncc21 (racemic) [Example 3]" data_value=7.28
compound="CCC(=O)NC1CCCc2c(-c3ccc(Cl)cc3F)cncc21 (single isomer, unassigned; (+)) [Example 32]" data_value=7.72
compound="CCC(=O)NC1CCCc2c(-c3ccc(C(F)(F)F)c(F)c3)cncc21 (single isomer, unassigned; (+)) [Example 41]" data_value=7.80
compound="CCC(=O)NC1CCCc2c(-c3ccc(F)cc3F)cncc21 (racemic) [Example 42]" data_value=6.96
compound="OC1CCCc2c(-c3ccc(C(F)(F)F)cc3)cncc21 (single isomer, unassigned; (-)) [Example 105]" data_value=6.97
compound="CCC(=O)NC1CCc2c(-c3ccc(C(F)(F)F)cc3F)cncc21 (single isomer, unassigned; (+)) [Example 63]" data_value=7.52
compound="Cc1ccc(C2(O)CCCc3c(-c4ccc(C#N)cc4)cncc32)cc1C (racemic) [Example 14]" data_value=7.80
compound="N#Cc1ccc(-c2cncc3c2CCCC3O)cc1 (racemic) [Example 11]" data_value=8.10
compound="CC(=O)N[C@@H]1CCCc2c(-c3ccc(C(F)(F)F)cc3)cncc21 [Example 77]" data_value=7.23
compound="NC(=O)COC1CCc2c(-c3ccc(C(F)(F)F)cc3)cncc21 (racemic) [Example 102]" data_value=8.96

###

- target: human CYP11B1 (Homo sapiens (Human))
- Sequence (P15538 25-503): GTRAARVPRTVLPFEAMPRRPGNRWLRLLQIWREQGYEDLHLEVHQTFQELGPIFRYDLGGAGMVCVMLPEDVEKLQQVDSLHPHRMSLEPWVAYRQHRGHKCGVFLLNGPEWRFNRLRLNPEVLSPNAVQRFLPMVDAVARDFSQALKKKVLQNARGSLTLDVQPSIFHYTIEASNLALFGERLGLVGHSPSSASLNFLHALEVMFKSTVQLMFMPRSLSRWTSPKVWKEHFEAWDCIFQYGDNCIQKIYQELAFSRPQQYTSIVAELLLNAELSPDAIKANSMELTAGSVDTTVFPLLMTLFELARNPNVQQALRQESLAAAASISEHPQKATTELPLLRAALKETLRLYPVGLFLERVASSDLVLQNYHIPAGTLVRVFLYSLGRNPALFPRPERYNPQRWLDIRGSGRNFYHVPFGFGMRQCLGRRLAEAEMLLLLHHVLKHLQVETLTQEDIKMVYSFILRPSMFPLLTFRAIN
- protocol-summary: G-402 cellular enzyme assay, human CYP11B1 (cortisol release)
- assay-conditions: G-402 cells expressing human CYP11B1, 1 μM Deoxycortisol
readout-type: EC50

compound="CC1(COC2CCc3c(-c4ccc(C(F)(F)F)cc4)cncc32)COC1 (racemic)" data_value="2.3 nM"
compound="CS(=O)(=O)NC1CCc2c(-c3ccc(C(F)(F)F)cc3)cncc21 (racemic)" data_value="1960 nM"
compound="N#Cc1ccc(-c2cncc3c2CCC3O)cc1 (racemic)" data_value="12 nM"
compound="NC(=O)COC1CCc2c(-c3ccc(C(F)(F)F)cc3)cncc21 (racemic)" data_value="40.8 nM"
compound="CCC(=O)NC1CCc2c(-c3ccc(F)c(C)c3)cncc21 (racemic) [Example 58]" data_value="156 nM"
compound="NC1CCc2c(-c3ccc(C(F)(F)F)c(F)c3)cncc21 (racemic)" data_value="1380 nM"
compound="CCC(=O)NC1CCCc2c(-c3ccc(C(F)(F)F)cc3)cncc21 (single isomer, unassigned; (+)) [Example 23]" data_value="3690 nM"
compound="CN(C)C(=O)COC1CCc2c(-c3ccc(C(F)(F)F)cc3)cncc21 (racemic)" data_value="1270 nM"

###

- target: UniProt P19099
- protocol-summary: G-402 cellular enzyme assay, human CYP11B2 (aldosterone release)
- assay-conditions: G-402 cells expressing human CYP11B2, 1 μM Deoxycorticosterone
readout-type: EC50 (nM)

molecule="CCS(=O)(=O)NC1CCc2c(-c3ccc(C(F)(F)F)c(F)c3)cncc21 (single isomer, unassigned; (+)) [Example 73]" data_value=44.4
molecule="CCC(=O)NC1CCCc2c(-c3ccc(Cl)cc3F)cncc21 (racemic) [Example 30]" data_value=28
molecule="CCC(=O)NC1CCCc2c(-c3ccc(Cl)c(Cl)c3)cncc21 (racemic)" data_value=3
molecule="CCS(=O)(=O)NC1CCc2c(-c3ccc(C(F)(F)F)c(F)c3)cncc21 (single isomer, unassigned; (-)) [Example 72]" data_value=16500
molecule=N[C@@H]1CCCc2c(-c3ccc(C(F)(F)F)cc3F)cncc21 data_value=32.8

###

- target: CYP11B2 (Homo sapiens (Human))
- protocol-summary: G-402 cellular enzyme assay, human CYP11B2 (aldosterone release)
- assay-conditions: G-402 cells expressing human CYP11B2, 1 μM Deoxycorticosterone
Class key for EC50 values: bin A: < 0.05 µM; bin B: ≥ 0.05 µM and < 0.8 µM; bin C: ≥ 0.8 µM

molecule="OC1CCc2c(-c3ccc(C(F)(F)F)cc3)cncc21 (racemic)" target="CYP11B2 (Homo sapiens (Human))" assigned_class="bin A"
molecule="C[C@@H](O)C(=O)NC1CCCc2c(-c3ccc(C(F)(F)F)cc3)cncc21 (some centres unmarked) [Example 46]" target="CYP11B2 (Homo sapiens (Human))" assigned_class="bin B"
molecule="C[C@@H](O)C(=O)NC1CCCc2c(-c3ccc(C(F)(F)F)cc3)cncc21 (single isomer, unassigned; (+)) [Example 47]" target="CYP11B2 (Homo sapiens (Human))" assigned_class="bin C"
molecule="CNC(=O)COC1CCc2c(-c3ccc(C(F)(F)F)cc3)cncc21 (racemic)" target="CYP11B2 (Homo sapiens (Human))" assigned_class="bin A"
molecule="C[C@@H](O)C(=O)NC1CCc2c(-c3ccc(C(F)(F)F)cc3)cncc21 (some centres unmarked) [Example 52]" target="CYP11B2 (Homo sapiens (Human))" assigned_class="bin B"
molecule="CCC(=O)NC1CCc2c(-c3ccc(C(F)(F)F)c(F)c3)cncc21 (racemic)" target="CYP11B2 (Homo sapiens (Human))" assigned_class="bin A"
molecule="CCC(=O)N[C@@H]1c2cncc(-c3ccc(C(F)(F)F)cc3)c2CC[C@H]1C (single isomer, unassigned)" target="CYP11B2 (Homo sapiens (Human))" assigned_class="bin B"
molecule=CCC(=O)N[C@@H]1CCCc2c(-c3ccc(C(F)(F)F)cc3C3CC3)cncc21 target="CYP11B2 (Homo sapiens (Human))" assigned_class="bin C"
molecule="CCC(=O)NC1CCCc2c(-c3ccc(F)c(F)c3)cncc21 (racemic)" target="CYP11B2 (Homo sapiens (Human))" assigned_class="bin A"
molecule="C[C@@H](O)C(=O)NC1CCc2c(-c3ccc(C(F)(F)F)cc3)cncc21 (single isomer, unassigned; (+)) [Example 54]" target="CYP11B2 (Homo sapiens (Human))" assigned_class="bin B"
molecule="CCC(=O)NC1CCCc2c(-c3ccc(C(F)(F)F)cc3F)cncc21 (single isomer, unassigned; (-)) [Example 34]" target="CYP11B2 (Homo sapiens (Human))" assigned_class="bin C"
